This collection of values is drawn from paper PMC9961652.

The following molecules are shown together with reported log10 IC50 values.
system: washed human platelets; assay: Collagen-induced platelet aggregation, light transmission aggregometry (Born method); format: cell-based; conditions: Homo sapiens, Platelet, collagen 1 µg/mL; washed human platelets; dose-response curves; read-out: IC50 (95% CI) of platelet aggregation
Lab note - IC50 converted to log10 from values in µM.

Worked examples follow.
Looking for the measured log10 IC50 of N[C@H](Cc1c[nH]c2ccccc12)C(=O)N/N=C/c1ccc2nccnc2c1 , can you help?
1.35

Also check N[C@@H](Cc1c[nH]c2ccccc12)C(=O)N/N=C/c1ccc2nccnc2c1
0.89

Also check O=C(NNc1ccnc2cc(C(F)(F)F)ccc12)c1cc2ccccc2[nH]1
0.35

Also check O=C(NNc1ccnc2ccccc12)Nc1ccccc1
0.69

Also check O=S(=O)(Nc1cc(C(F)(F)F)ccc1Cl)c1cccc2cccnc12
0.72

Further cases:
Looking for the measured log10 IC50 of S=C(NNc1ccnc2ccccc12)Nc1ccccc1 , can you help?
0.74

Also check Cc1ccc(C(=O)NNc2ccnc3c(C(F)(F)F)cccc23)cc1
0.38
